molecular target: MK-2 (Homo sapiens); assay: Determination of MK-2 IC50 (anion exchange resin capture assay, HSP-peptide phosphorylation); format: biochemical; details: read-out: MK-2 Avg. IC50
Sequence (P49137 whole entry, species assumed): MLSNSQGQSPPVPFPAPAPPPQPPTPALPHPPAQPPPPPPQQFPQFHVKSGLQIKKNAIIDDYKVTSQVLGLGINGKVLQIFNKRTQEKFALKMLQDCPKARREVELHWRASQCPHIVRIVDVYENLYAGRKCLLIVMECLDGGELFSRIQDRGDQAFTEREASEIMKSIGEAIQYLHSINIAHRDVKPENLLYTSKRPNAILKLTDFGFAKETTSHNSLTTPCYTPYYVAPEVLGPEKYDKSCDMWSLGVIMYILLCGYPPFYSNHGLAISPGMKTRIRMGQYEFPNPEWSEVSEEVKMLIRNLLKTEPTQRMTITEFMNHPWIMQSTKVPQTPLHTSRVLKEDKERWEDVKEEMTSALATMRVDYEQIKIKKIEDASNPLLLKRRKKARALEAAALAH
pIC50: −log10 of the molar value. Where a name gives a salt, the structure may show the parent alone.
valueType: pIC50

// known answers, use as guide
INSERT INTO results (compound, recordednumber) VALUES
  ('O=C1NCCn2nc(-c3ccnc(Cl)c3)cc21', 4.35),
  ('O=C1NCCCn2nc(-c3ccnc(Cl)c3)cc21', 4.09),
  ('O=C1NCCCn2nc(-c3ccc(O)cc3)cc21', 3.93),
  ('CCOC(=O)c1cc(-c2ccncc2)nn1CCN [Example 133, dihydrochloride]', 4.61),
  ('Cc1cnn(-c2cc(-c3cc4n(n3)CCCNC4=O)ccn2)c1 [Example 142, trifluoroacetate]', 4.27);

[I] CCOC(=O)c1cc(-c2ccnc(-c3ccc(O)cc3)c2)nn1CCCN [Example 141, hydrochloride]
[II] O=C1NCCn2nc(-c3ccnc(-c4ccc(F)c(F)c4)c3)cc21 [Example 146, trifluoroacetate]
[III] Cc1ccc(C(C)CCNCCn2nc(-c3ccncc3)cc2C(=O)O)o1 (stereo not drawn) [Example 134, trifluoroacetate]
[IV] CCCn1nc(-c2ccnc(-n3ccnc3)c2)cc1C(=O)O
stdin: List by increasing pIC50. Returns: the labels arranged in the requested order.
stdout: II, I, III, IV
